# literature pull: Sodium-dependent dopamine transporter (Homo sapiens) Ki
Return type: number; implicit unit nM.

Query string: Recorded Ki for COc1ccc(C(CCCCNC(=O)Nc2ccc(Cl)c(C(F)(F)F)c2)c2ccc(OC)cc2)cc1 , please?
Result string: 40

Query string: I would be grateful if you could share the reported Ki for Cc1ccccc1CN(CC(C)C)C1CCNCC1 .
Result string: 240

Query string: What Ki value was documented for this molecule, Cc1ccc(F)c(Oc2ccccc2C2CCNCC2)c1 ?
Result string: 1080

Query string: Can you look up the measured Ki of COc1ccc(Sc2ccccc2N)c(CN(C)C)c1 for me?
Result string: 576

Query string: Which Ki is listed for CC(C)CN(C(=O)c1ccc(Cl)c(Cl)c1)[C@H]1CCNC1 ?
Result string: 430

Query string: Name the reported Ki value associated with the molecule CCOC(=O)[C@@H]1CN(CCn2c(=O)[nH]c3ccccc3c2=O)CC[C@@H]1c1ccc(C)cc1 (racemic)
Result string: 7300

Query string: Consider the molecule shown here: OC1([C@H](CN2CCNCC2)c2cccc(Cl)c2)CCCCC1 What is its recorded Ki?
Result string: 135

Query string: Which value of Ki has been reported for O=C1/C(=C/c2ccccc2N2CCNCC2)SCCN1c1ccc(F)cc1F in the records?
Result string: 1360

----------
Here's a roundup of pKi values tested on Sodium-dependent dopamine transporter (Homo sapiens, UniProt Q01959), taken from various published works.
Sequence (Q01959 whole entry): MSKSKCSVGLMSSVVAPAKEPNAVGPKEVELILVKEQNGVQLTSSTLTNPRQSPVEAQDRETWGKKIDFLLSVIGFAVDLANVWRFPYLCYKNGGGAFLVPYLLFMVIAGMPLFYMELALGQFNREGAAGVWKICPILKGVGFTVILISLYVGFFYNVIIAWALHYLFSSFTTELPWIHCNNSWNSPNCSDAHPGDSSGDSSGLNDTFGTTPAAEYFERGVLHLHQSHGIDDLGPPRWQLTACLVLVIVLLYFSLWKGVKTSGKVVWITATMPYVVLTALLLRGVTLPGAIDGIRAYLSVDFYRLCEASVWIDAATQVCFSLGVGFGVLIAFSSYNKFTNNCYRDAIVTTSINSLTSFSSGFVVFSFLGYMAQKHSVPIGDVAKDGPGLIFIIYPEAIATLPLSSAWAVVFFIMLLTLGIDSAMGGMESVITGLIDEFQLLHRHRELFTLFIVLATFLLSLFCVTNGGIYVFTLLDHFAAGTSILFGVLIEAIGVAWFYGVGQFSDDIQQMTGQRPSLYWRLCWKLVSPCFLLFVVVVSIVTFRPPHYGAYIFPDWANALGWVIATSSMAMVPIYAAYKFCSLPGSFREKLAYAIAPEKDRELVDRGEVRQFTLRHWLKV
pKi: −log10 of the molar value.
Please enter 1 where pKi is greater than or equal to 6, and 0 where it is lower.

Query string: Is pKi at least 6? Consider CN(C)Cc1ccccc1Sc1ccccc1N
Result string: 1

Query string: Test whether the compound COC(=O)c1ccccc1S[C@@H](c1ccccc1)[C@@H]1CNCCO1 records pKi of 6 or higher.
Result string: 0

Query string: Identify whether the reported pKi of the following compound is 6 or greater: CC(C)CN(C(=O)c1cccc(F)c1Cl)[C@H]1CCNC1
Result string: 0

Query string: Quick check: does c1ccc(Oc2ncccc2C2CCNCC2)cc1 have pKi greater than or equal to 6?
Result string: 0

Query string: Hi, just wondering whether N#Cc1ccc2[nH]cc([C@H]3CC[C@@H](N4CCc5cc(OCCCF)ccc5C4)CC3)c2c1 shows pKi of 6 or higher.
Result string: 1

Query string: Hi team, for N#Cc1cc(F)cc(C#Cc2csc(F)n2)c1 , is the recorded pKi at or above 6?
Result string: 0

Query string: Check the entry C[C@@H]1CCCN1CCCOc1ccc(C2=NNC(=O)[C@@H]3C[C@H]23)cc1 : does pKi equal or exceed 6?
Result string: 0

Query string: Assess whether reported pKi for Fc1cccc(CNC23OC4C5C6CC(C7C6C4C72)C53)c1 (stereo unspecified) sits at 6 or higher.
Result string: 0

Query string: Determine whether this compound has pKi no lower than 6: CC(C)(C)CN(Cc1ccccc1C(F)(F)F)C1CCNCC1
Result string: 1

----------
Consider the following pKi data for Sodium-dependent dopamine transporter (Homo sapiens, UniProt Q01959), collected from several reports.
By convention, pKi is the negative base-10 log of a molar concentration.

Query string: What measured pKi is associated with Fc1ccccc1Oc1ccccc1OC1CNC1 on Sodium-dependent dopamine transporter (Homo sapiens, UniProt Q01959)?
Result string: 5.69

Query string: Look up pKi with Sodium-dependent dopamine transporter (Homo sapiens, UniProt Q01959) for this molecule: CN(Cc1cccc(F)c1)[C@H]1C2C3CC4C2C(=O)C2C4C3C21 (stereo partly drawn)
Result string: 5.34

Query string: Notebook entry, Sodium-dependent dopamine transporter (Homo sapiens, UniProt Q01959) assay: pKi of COc1ccc(C2=NN(CCCCCNCC[C@H](Oc3cccc4ccccc34)c3cccs3)C(=O)[C@@H]3CC=CC[C@H]23)cc1OC = ?
Result string: 5.34

Query string: Recorded pKi for C[C@@H]1CCCN1CCCOc1ccc(C2=NNC(=O)[C@H]3C[C@@H]23)cc1 with Sodium-dependent dopamine transporter (Homo sapiens, UniProt Q01959), please?
Result string: 5.18

Query string: Provide the documented pKi with Sodium-dependent dopamine transporter (Homo sapiens, UniProt Q01959) as the system for CC(C)CN(Cc1ccc(F)cc1C(F)(F)F)C1CCNCC1
Result string: 6.72

Query string: API: value(readout=pKi, system=Sodium-dependent dopamine transporter (Homo sapiens, UniProt Q01959)) for record N#Cc1ccc2[nH]cc([C@H]3CC[C@H](N4CCc5ccccc5C4)CC3)c2c1
Result string: 6.51

Query string: Hi! What's the reported pKi for Fc1cccc(C2CCNCC2)c1Oc1ccccc1 on Sodium-dependent dopamine transporter (Homo sapiens, UniProt Q01959)?
Result string: 6.62

Query string: Please state recorded pKi (tested on Sodium-dependent dopamine transporter (Homo sapiens, UniProt Q01959)) of CC(C)CN(Cc1ccccc1Cl)C1CCNCC1
Result string: 7.08

Query string: Identify the measured pKi of [11CH3]Oc1cccc2c1CCN(CCCc1c[nH]c3ccc(I)cc13)C2 for Sodium-dependent dopamine transporter (Homo sapiens, UniProt Q01959).
Result string: 5.94

Query string: Write down the reported pKi of Fc1cccc(Oc2ccccc2Cl)c1OC1CCNC1 (stereo not drawn) , test system: Sodium-dependent dopamine transporter (Homo sapiens, UniProt Q01959).
Result string: 5.69

Query string: Give recorded pKi with Sodium-dependent dopamine transporter (Homo sapiens, UniProt Q01959) for the following molecule: CNC(=O)c1ccccc1Sc1ccc(C)cc1[N+](=O)[O-]
Result string: 6.16

Query string: Write down the reported pKi of CCCN(C(=O)c1cccc(Cl)c1Cl)[C@H]1CCNC1 , test system: Sodium-dependent dopamine transporter (Homo sapiens, UniProt Q01959).
Result string: 6.20

Query string: Enter reported pKi observed with Sodium-dependent dopamine transporter (Homo sapiens, UniProt Q01959) for NCC[C@@H](Oc1cccc2ccccc12)c1cccs1
Result string: 5.45

Query string: Any idea what pKi came out for CNCc1cc(C#CCCN(C)C2CC2)ccc1Oc1ccc(SC)cc1 on Sodium-dependent dopamine transporter (Homo sapiens, UniProt Q01959)?
Result string: 6.40

Query string: Any idea what pKi came out for CNC(=O)c1ccccc1Sc1ccccc1[N+](=O)[O-] on Sodium-dependent dopamine transporter (Homo sapiens, UniProt Q01959)?
Result string: 6.01

Query string: Record lookup: for Sodium-dependent dopamine transporter (Homo sapiens, UniProt Q01959), what pKi belongs to CC(C)CN(Cc1cccc(F)c1)C1CCNCC1 ?
Result string: 7.06

Query string: Form: Entry = [11CH3]Oc1ccc2c(c1)CCN(CCCc1c[nH]c3ccc(F)cc13)C2 | System = Sodium-dependent dopamine transporter (Homo sapiens, UniProt Q01959) | pKi = ____
Result string: 5.60

Query string: Recall the recorded pKi for O=C(Cc1ccc(F)cc1)NCCNCCOC(c1ccc(F)cc1)c1ccc(F)cc1 with Sodium-dependent dopamine transporter (Homo sapiens, UniProt Q01959) and state it.
Result string: 7.27

Query string: What pKi appears in the records for this molecule with Sodium-dependent dopamine transporter (Homo sapiens, UniProt Q01959)? O=C(NCCCCN(c1ccc(F)cc1)c1ccc(F)cc1)Nc1ccc(Cl)cc1
Result string: 6.39

Query string: // map CCOC(=O)[C@@H]1CN(CCn2c(=O)[nH]c3ccccc3c2=O)CC[C@@H]1c1ccc(F)cc1 (racemic) to recorded pKi (system: Sodium-dependent dopamine transporter (Homo sapiens, UniProt Q01959))
Result string: 5.38

Query string: Request - read-out pKi | tested on Sodium-dependent dopamine transporter (Homo sapiens, UniProt Q01959) | molecule Cl.c1ccc(OCc2cc(N3CCNCC3)no2)cc1
Result string: 6.30

Query string: # value lookup — system Sodium-dependent dopamine transporter (Homo sapiens, UniProt Q01959), readout pKi, item CCN(C(=O)c1cccc(Cl)c1Cl)[C@H]1CCNC1
Result string: 5.96

Query string: For Sodium-dependent dopamine transporter (Homo sapiens, UniProt Q01959), provide pKi of CC(C)(C)OC(=O)N1CCCC1CNC1CCC(c2cc(F)ccc2F)(S(=O)(=O)c2ccc(Cl)cc2)CC1 (stereo not drawn) please.
Result string: 5.00

Query string: Recorded pKi for N#Cc1ccc2[nH]cc([C@H]3CC[C@H](N4CCc5cc(OCCCF)ccc5C4)CC3)c2c1 with Sodium-dependent dopamine transporter (Homo sapiens, UniProt Q01959), please?
Result string: 6.46

Query string: Form field - read-out: pKi; system: Sodium-dependent dopamine transporter (Homo sapiens, UniProt Q01959); submitted item: CN(C)Cc1cc(OCCCF)ccc1Sc1ccccc1N
Result string: 6.52

Query string: Param readout = pKi; param system = Sodium-dependent dopamine transporter (Homo sapiens, UniProt Q01959); param query = O=C(NCCCCC(c1ccc(F)cc1)c1ccc(F)cc1)Nc1ccc(Cl)cc1 ; response: value
Result string: 7.82
